Molecular target: UniProt Q9WTR4
Sequence (Q9WTR4 whole entry): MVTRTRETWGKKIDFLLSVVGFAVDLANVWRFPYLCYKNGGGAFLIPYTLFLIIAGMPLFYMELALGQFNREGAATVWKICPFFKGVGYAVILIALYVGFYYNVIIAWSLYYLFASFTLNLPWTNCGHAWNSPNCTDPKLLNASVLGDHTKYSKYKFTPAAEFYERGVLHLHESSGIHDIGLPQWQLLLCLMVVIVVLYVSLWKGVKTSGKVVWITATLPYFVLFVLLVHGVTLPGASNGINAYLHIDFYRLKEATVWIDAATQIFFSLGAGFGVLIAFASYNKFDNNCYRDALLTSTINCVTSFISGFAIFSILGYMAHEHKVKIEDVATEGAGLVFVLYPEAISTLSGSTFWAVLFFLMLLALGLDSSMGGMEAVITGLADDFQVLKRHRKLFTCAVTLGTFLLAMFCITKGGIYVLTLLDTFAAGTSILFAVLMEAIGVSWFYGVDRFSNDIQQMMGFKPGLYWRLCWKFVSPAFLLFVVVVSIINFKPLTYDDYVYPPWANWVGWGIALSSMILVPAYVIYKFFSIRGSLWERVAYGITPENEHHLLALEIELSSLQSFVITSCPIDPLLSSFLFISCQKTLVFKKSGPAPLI
ASSAY_METRIC: pKi
The scale used: pKi is minus the common logarithm of the concentration in molar units.

So what's the measured pKi for this one? C[C@@H]1CN(CCCN(c2ccc(F)cc2)c2ccc(F)cc2)C[C@@H](C)N1 4.77
